Ref: ChEMBL document CHEMBL3352747

target.or.system: Bile acid receptor (Homo sapiens) (UniProt Q96RI1)
assay: Agonist activity at FXR (unknown origin) assessed as ligand-mediated interaction of the SRC1 peptide with protein LBD by FRET assay relative to GW4064
quantity.measured: Emax (%)

- smiles.text: "CC(C)c1oc(=O)n(CCc2c(Cl)cccc2Cl)c1COc1ccc(/C=C/c2cccc(C(=O)O)c2)c(Cl)c1"
  Emax (%): 99
- smiles.text: "CC(C)n1nnc(-c2c(Cl)cccc2Cl)c1COc1ccc(/C=C/c2cccc(C(=O)O)c2)c(Cl)c1"
  Emax (%): 80

A. CC(C)n1cnc(COc2c(Cl)cccc2Cl)c1COc1ccc(/C=C/c2cccc(C(=O)O)c2)c(Cl)c1
B. CC(C)c1occ(COc2c(Cl)cccc2Cl)c1COc1ccc(/C=C/c2cccc(C(=O)O)c2)c(Cl)c1
Request: Could you determine which record has the numerically smaller Emax? Candidates: A and B // output: label of the selected item
Result: B
(B: 51%, A: 88%)

---

target.or.system: Bile acid receptor (Homo sapiens)
Sequence (Q96RI1 whole entry): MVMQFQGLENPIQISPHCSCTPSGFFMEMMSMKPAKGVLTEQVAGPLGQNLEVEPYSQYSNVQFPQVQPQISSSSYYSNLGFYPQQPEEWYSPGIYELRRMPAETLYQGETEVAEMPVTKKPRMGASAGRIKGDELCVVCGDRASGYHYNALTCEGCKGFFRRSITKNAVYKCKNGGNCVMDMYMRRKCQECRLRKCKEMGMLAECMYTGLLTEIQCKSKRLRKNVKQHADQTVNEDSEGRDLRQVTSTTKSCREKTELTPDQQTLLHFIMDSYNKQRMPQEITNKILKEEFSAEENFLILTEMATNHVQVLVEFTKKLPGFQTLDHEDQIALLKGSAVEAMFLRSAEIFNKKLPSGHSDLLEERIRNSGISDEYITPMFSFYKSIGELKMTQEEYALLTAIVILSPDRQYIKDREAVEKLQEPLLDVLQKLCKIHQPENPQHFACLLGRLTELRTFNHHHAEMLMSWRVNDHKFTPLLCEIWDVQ
assay: Agonist activity at FXR (unknown origin) transfected into african green monkey CV1 cells assessed as ligand-mediated transcription by luciferase reporter/ transient transfection assay
Assay type: cell-based, CV-1
conditions.used: cv-1
pEC50: −log10 of the molar value.
quantity.measured: pEC50

Please fill in: pEC50 reported for `CC(C)c1occ(COc2c(Cl)cccc2Cl)c1COc1ccc(/C=C/c2cccc(C(=O)O)c2)c(Cl)c1` = > 5.00

---

target.or.system: UniProt:Q96RI1
Sequence (Q96RI1 whole entry): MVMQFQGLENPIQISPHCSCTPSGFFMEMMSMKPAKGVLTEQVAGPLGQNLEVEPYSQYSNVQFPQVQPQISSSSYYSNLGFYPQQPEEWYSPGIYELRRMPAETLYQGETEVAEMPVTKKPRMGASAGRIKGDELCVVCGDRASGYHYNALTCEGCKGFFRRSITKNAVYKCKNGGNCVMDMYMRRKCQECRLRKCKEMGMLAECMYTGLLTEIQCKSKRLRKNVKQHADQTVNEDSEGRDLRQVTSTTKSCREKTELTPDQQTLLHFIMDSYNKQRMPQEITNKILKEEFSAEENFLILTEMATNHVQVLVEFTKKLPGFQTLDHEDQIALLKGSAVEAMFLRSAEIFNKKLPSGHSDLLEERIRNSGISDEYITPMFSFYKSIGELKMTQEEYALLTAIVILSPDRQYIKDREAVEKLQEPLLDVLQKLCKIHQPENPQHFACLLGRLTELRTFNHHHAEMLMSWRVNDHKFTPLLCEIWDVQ
assay: Agonist activity at FXR (unknown origin) assessed as ligand-mediated interaction of the SRC1 peptide with protein LBD by FRET assay
pEC50: −log10 of the molar value.
quantity.measured: pEC50

a. CC(C)c1cnn(-c2c(Cl)cccc2Cl)c1COc1ccc(/C=C/c2cccc(C(=O)O)c2)c(Cl)c1
b. CC(C)c1oc(=O)n(CCc2c(Cl)cccc2Cl)c1COc1ccc(/C=C/c2cccc(C(=O)O)c2)c(Cl)c1
c. CC(C)c1oc(=O)n(Cc2c(Cl)cccc2Cl)c1COc1ccc(/C=C/c2cccc(C(=O)O)c2)c(Cl)c1
d. CC(C)c1ncn(CCc2c(Cl)cccc2Cl)c1COc1ccc(/C=C/c2cccc(C(=O)O)c2)c(Cl)c1
Request: Ascending sort, pEC50. Respond with the label ranking, as requested.
Result: d, c, b, a
